Please provide measured pEC50 for the entries that follow.
# TARGET DESC: Human M4 (Homo sapiens, UniProt P08173)
# Sequence (P08173 whole entry): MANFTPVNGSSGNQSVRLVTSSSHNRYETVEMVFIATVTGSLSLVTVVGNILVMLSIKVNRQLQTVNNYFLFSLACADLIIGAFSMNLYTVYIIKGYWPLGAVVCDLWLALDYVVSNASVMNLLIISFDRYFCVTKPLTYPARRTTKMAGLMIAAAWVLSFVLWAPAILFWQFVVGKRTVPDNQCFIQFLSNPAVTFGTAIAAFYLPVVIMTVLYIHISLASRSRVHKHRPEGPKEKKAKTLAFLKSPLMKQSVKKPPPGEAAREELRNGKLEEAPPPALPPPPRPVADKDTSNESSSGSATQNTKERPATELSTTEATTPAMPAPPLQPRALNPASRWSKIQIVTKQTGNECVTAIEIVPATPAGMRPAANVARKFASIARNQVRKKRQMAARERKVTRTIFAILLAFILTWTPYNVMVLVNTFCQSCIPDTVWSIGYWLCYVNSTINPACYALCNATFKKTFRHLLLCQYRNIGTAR
# MEASUREMENT NOTES: M4 cell-based functional assay (calcium mobilization)
# Parameters: expressed in transfected cells
# CONDITIONS: CHO-K1 hM4-Gqi5 cells, calcium flux, increase in EC20 acetylcholine response
Give only the number. pEC50 is defined as minus log10 of concentration in molar units.

Prompt: Item: Cc1c(N2CCc3nc(C4CC4)sc3C2)nc2nn(CC3(C#N)CC3)c(=O)n2c1C Test system: Human M4 (Homo sapiens, UniProt P08173) Read-out: pEC50 Value: ?
Response: 7.92

Prompt: Item: Cc1c(N2CCc3nc(C4CC4)sc3C2)nc2nn(CC3CC3(F)F)c(=O)n2c1C (stereo not drawn) Test system: Human M4 (Homo sapiens, UniProt P08173) Read-out: pEC50 Value: ?
Response: 8.15

Prompt: Item: [2H]C([2H])([2H])n1nc2nc(N3CCc4nc(C5(F)CC5)sc4C3)c(C)c(C)n2c1=O Test system: Human M4 (Homo sapiens, UniProt P08173) Read-out: pEC50 Value: ?
Response: 8.15

----------
# TARGET DESC: Human M4 (Homo sapiens)
# MEASUREMENT NOTES: M4 cell-based functional assay (calcium mobilization)
# Parameters: expressed in transfected cells
# CONDITIONS: CHO-K1 hM4-Gqi5 cells, calcium flux, increase in EC20 acetylcholine response
# Description: Human (h) and rat (r) M4 CDNAs, along with the chimeric G protein Gqi5, were transfected into Chinese hamster ovary (CHO-K1) cells purchased from the American Type Culture Collection using Lipofectamine2000. […] The high throughput assay was employed to measure receptor-induced mobilization of intracellular calcium to determine compound activity. […] After a ˜2.5 minute incubation period, a submaximal (EC20) concentration of acetylcholine was added, and the response measured. […]
MEASURED QUANTITY: EC50 (nM)
Write down the numeric answer in nM and omit the unit.

Prompt: Quick one: EC50 for Cc1c(N2CCc3nc(C4(F)CC4)sc3C2)nc2nn(CC3CC3)c(=O)n2c1C ?
Response: 18

Prompt: Quick one: EC50 for Cc1noc2ncnc(N3CCc4nc(Br)sc4C3)c12 ?
Response: 1290

Prompt: Quick one: EC50 for COc1nc2c(s1)CN(c1nnc(C#N)c(C)c1C)CC2 ?
Response: 732

Prompt: Quick one: EC50 for Cc1cc(C#N)cnc1N1CCc2nc(Br)sc2C1 ?
Response: 59

Prompt: Quick one: EC50 for Cc1cc2nc(C(F)(F)F)cc(=O)n2nc1N1CCc2nc(Br)sc2C1 ?
Response: 37

Prompt: Quick one: EC50 for Cc1cc(C#N)nnc1N1CCc2nc(Br)sc2C1 ?
Response: 851

Prompt: Quick one: EC50 for Cc1cc2nccnc2nc1N1CCc2nc(C(F)(F)F)sc2C1 ?
Response: 93

Prompt: Quick one: EC50 for Cc1cc2nccnc2nc1N1CCc2nc(C(C)C)sc2C1 ?
Response: 119

Prompt: Quick one: EC50 for Cc1cc(C#N)cnc1N1CCc2nc(C(N)=O)sc2C1 ?
Response: 301

Prompt: Quick one: EC50 for Cc1cc2nccnc2nc1N1CCc2nc(C3CC3(C)C)sc2C1 (centres unmarked) ?
Response: 738

Prompt: Quick one: EC50 for Cc1nc(Cl)c(C)c(N2CCc3nc(C)sc3C2)n1 ?
Response: 660

Prompt: Quick one: EC50 for Cc1cc2nc(C)c(C)c(=O)n2nc1N1CCc2nc(Br)sc2C1 ?
Response: 1180

Prompt: Quick one: EC50 for Cc1cc2nccnc2nc1N1CCc2nc(Cl)sc2C1 ?
Response: 414

Prompt: Quick one: EC50 for Cc1cc2nccnc2nc1N1CCc2ncsc2C1 ?
Response: 2790

Prompt: Quick one: EC50 for Cc1nc(Cl)c(C)c(N2CCc3nc(Br)sc3C2)n1 ?
Response: 103

Prompt: Quick one: EC50 for Cc1c(N2CCc3nc(C4CC4)sc3C2)nc2n[nH]c(=O)n2c1C ?
Response: 5

Prompt: Quick one: EC50 for Cc1cc(=O)n2nc(N3CCc4nc(Br)sc4C3)c(C)cc2n1 ?
Response: 291

Prompt: Quick one: EC50 for Cc1c(N2CCc3nc(C4(F)CC4)sc3C2)nc2nn(C)c(=O)n2c1C ?
Response: 4

Prompt: Quick one: EC50 for Cc1cc2nc(=O)ccn2nc1N1CCc2nc(Br)sc2C1 ?
Response: 521
